tested on: Saccharomyces cerevisiae; assay: protein stability index of tFT-peptide fusion (C-terminal peptide) (PSI (0-1 scale)); higher = more stable (slower turnover); settings: genetic background: doa10 deletion; temperature: 30 C;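 further: PSI is a weighted mean of sequencing reads over stability bins, variants kept only with over 10 reads, mCherry proximal and sfGFP distal, peptide attached via GGGS linker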
MEASUREMENT NAME: protein stability index
Respond numerically, and do not add a unit to the figure.

Query: Answer with protein stability index of `FTEFWFFKQMSV` measured for Saccharomyces cerevisiae.
Result: 0.11

Query: Answer with protein stability index of `GGWGSSLGVWVG` measured for Saccharomyces cerevisiae.
Result: 0.178

Query: Answer with protein stability index of `DFCCGVILTCVC` measured for Saccharomyces cerevisiae.
Result: 0.156

Query: Answer with protein stability index of `RRRGIYARASVV` measured for Saccharomyces cerevisiae.
Result: 0.249

Query: Answer with protein stability index of `RCSLRLRFIFVR` measured for Saccharomyces cerevisiae.
Result: 0.254

Query: Answer with protein stability index of `VSFRISAIFVCV` measured for Saccharomyces cerevisiae.
Result: 0.183

Query: Answer with protein stability index of `VFFLRVHFWSFF` measured for Saccharomyces cerevisiae.
Result: 0.138

Query: Answer with protein stability index of `IGSARIKLLCYH` measured for Saccharomyces cerevisiae.
Result: 0.124

Query: Answer with protein stability index of `LIAPSACNLFLF` measured for Saccharomyces cerevisiae.
Result: 0.288

Query: Answer with protein stability index of `WVYVFVSLFFVV` measured for Saccharomyces cerevisiae.
Result: 0.196

Query: Answer with protein stability index of `PPPPPSRPFSPP` measured for Saccharomyces cerevisiae.
Result: 0.689

Query: Answer with protein stability index of `CSSIFSSSDCYA` measured for Saccharomyces cerevisiae.
Result: 0.68

Query: Answer with protein stability index of `TNFVVRLRFVLF` measured for Saccharomyces cerevisiae.
Result: 0.29

Query: Answer with protein stability index of `FFLLSVVLKYSV` measured for Saccharomyces cerevisiae.
Result: 0.093

Query: Answer with protein stability index of `SFVGCWFVLLVR` measured for Saccharomyces cerevisiae.
Result: 0.193

Query: Answer with protein stability index of `RFFFASRYIECF` measured for Saccharomyces cerevisiae.
Result: 0.187

Query: Answer with protein stability index of `RLRWLSPMTHVG` measured for Saccharomyces cerevisiae.
Result: 0.263

Query: Answer with protein stability index of `SSMSAVFRLQVC` measured for Saccharomyces cerevisiae.
Result: 0.228

Query: Answer with protein stability index of `RRAVGLANFTIK` measured for Saccharomyces cerevisiae.
Result: 0.639

Query: Answer with protein stability index of `GGMVRSCLWCFV` measured for Saccharomyces cerevisiae.
Result: 0.322

Query: Answer with protein stability index of `YGWGFLFILTLM` measured for Saccharomyces cerevisiae.
Result: 0.14

Query: Answer with protein stability index of `VCLWVEVLIVLG` measured for Saccharomyces cerevisiae.
Result: 0.106

Query: Answer with protein stability index of `VLISLVLLFRCW` measured for Saccharomyces cerevisiae.
Result: 0.307

Query: Answer with protein stability index of `HSPPVPFPPPTS` measured for Saccharomyces cerevisiae.
Result: 0.688

Query: Answer with protein stability index of `LVRDEVLKVKLV` measured for Saccharomyces cerevisiae.
Result: 0.138

Query: Answer with protein stability index of `CGLLWFYSFFLF` measured for Saccharomyces cerevisiae.
Result: 0.375

Query: Answer with protein stability index of `SSVCYFGLLFIV` measured for Saccharomyces cerevisiae.
Result: 0.103

Query: Answer with protein stability index of `FYPLPASIPDFA` measured for Saccharomyces cerevisiae.
Result: 0.675

Query: Answer with protein stability index of `VIWIRMISFFVW` measured for Saccharomyces cerevisiae.
Result: 0.174

Query: Answer with protein stability index of `LSFLSLIFSICY` measured for Saccharomyces cerevisiae.
Result: 0.355

Query: Answer with protein stability index of `GTEFSNVITYLV` measured for Saccharomyces cerevisiae.
Result: 0.34

Query: Answer with protein stability index of `FYFRSSFFTICF` measured for Saccharomyces cerevisiae.
Result: 0.432

Query: Answer with protein stability index of `VAWCVWCWWWAV` measured for Saccharomyces cerevisiae.
Result: 0.06

Query: Answer with protein stability index of `VGVVLWWVVLMV` measured for Saccharomyces cerevisiae.
Result: 0.154

Query: Answer with protein stability index of `LSVYFSLSLCVS` measured for Saccharomyces cerevisiae.
Result: 0.392

Query: Answer with protein stability index of `GVVCWLVVTGFL` measured for Saccharomyces cerevisiae.
Result: 0.255

Query: Answer with protein stability index of `RPSHTSVYRLLH` measured for Saccharomyces cerevisiae.
Result: 0.114

Query: Answer with protein stability index of `VLLMFFFRFSAL` measured for Saccharomyces cerevisiae.
Result: 0.483

Query: Answer with protein stability index of `SSLLPLLAQLVG` measured for Saccharomyces cerevisiae.
Result: 0.252

Query: Answer with protein stability index of `LGFFIFSFLILK` measured for Saccharomyces cerevisiae.
Result: 0.263

Query: Answer with protein stability index of `LLVSVVFVSRFF` measured for Saccharomyces cerevisiae.
Result: 0.213

Just for reference, the supplement of paper PMC10724198 is where these values come from.
